B1: TRIM9 (parent)
chain: PRNSCITCPQCHRSLILDDRGLRG

Variants of: B1
Experiment: protein stability index of a GFP-peptide fusion (GPS, HEK-293T) (PSI 1-6); higher = more stable;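 note: lentivirally expressed fusions sorted by FACS into six bins by GFP to DsRed ratio, PSI derived from sequencing read proportions per bin multiplied by bin number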
Conditions: c terminus: a fixed tail appended
The threshold is inclusive: protein stability index of exactly 2 counts as 1; values below receive 0.

VARIANT_NOTATION | LABEL_CLASS
G21K | 1
H12Y | 1
P1D | 1
C5A | 0
G24A | 1
L15E | 1
T7Q | 1
R2S | 0
D19T | 1
S14N | 0
S14M | 1
S14G | 0
P9E | 0
S14T | 1
C8L | 1
G24S | 1
I6T | 0
D18A | 1
L17K | 1

Values compiled from the supplement of paper PMC10567573.
